- Tested on: kochia (Kochia scoparia)
- Assay notes: Test B pre-/postemergence plant response
- Assay type: in vivo
- Experimental setup: Postemergence, 125 g ai/ha; visual rating after 13 to 15 days, scale 0 (no effect) to 100 (complete control)
Classification field: Fulfilled = Plant response rating, Kochia at or over 90; Not fulfilled = Plant response rating, Kochia under 90.

>>> class_label("O=C1CCCC(O)=C1C(=O)c1cnc(-c2ccc(Br)cc2)n(-c2ccccc2)c1=O")
"Not fulfilled"
>>> class_label("O=C1CCCC(O)=C1C(=O)c1cnc(-c2cccc(Cl)c2)n(-c2ccccc2)c1=O")
"Fulfilled"
>>> class_label("CCCCc1ncc(C(=O)C2=C(O)CCCC2=O)c(=O)n1-c1ccccc1C")
"Not fulfilled"
>>> class_label("CC(C)Cc1ncc(C(=O)C2=C(O)CCCC2=O)c(=O)n1-c1ccccc1")
"Fulfilled"

###

- Test system: naked crabgrass (Digitaria nuda)
- Assay notes: Test D pre-/postemergence plant response
- Assay type: in vivo
- Experimental setup: Postemergence; 62 g ai/ha; scale 0 to 100 (0 no effect, 100 complete control)
Entries and their Plant response rating, Crabgrass, Naked values follow.
Quantity name: Plant response rating, Crabgrass, Naked

>>> result("O=C1CCCC(O)=C1C(=O)c1cnc(C2CC2)n(-c2ccccc2)c1=O [Compound 87]")
70
>>> result("Cc1ccc(Cl)cc1-n1c(-c2ccccc2)ncc(C(=O)C2=C(O)CCCC2=O)c1=O [Compound 52]")
95
>>> result("O=C1CCCC(O)=C1C(=O)c1cnc(-c2cccnc2)n(-c2ccccc2)c1=O [Compound 113]")
70
>>> result("CCCn1c(-c2ccccc2)ncc(C(=O)C2=C(O)C3CCC(C3)C2=O)c1=O (centres unmarked) [Compound 226]")
65
>>> result("O=C1CCCC(O)=C1C(=O)c1cnc(-c2ccccc2)n(C2CCCCC2)c1=O [Compound 128]")
70

###

- Tested on: nightshade (eastern black nightshade, Solanum ptycanthum)
- Assay notes: Test B pre-/postemergence plant response
- Type: in vivo
- Experimental setup: Preemergence, 62 g ai/ha; scale 0 to 100, 0 no effect, 100 complete control
Quantity name: Plant response rating, Nightshade

>>> result_number("CCCn1c(-c2ccccc2)ncc(C(=O)C2=C(O)CCCC2=O)c1=O")
100
>>> result_number("Cc1ccc(Cl)cc1-n1c(-c2ccccc2)ncc(C(=O)C2=C(O)CCCC2=O)c1=O")
95
>>> result_number("Cc1ccc(F)c(-n2c(-c3ccccc3)ncc(C(=O)C3=C(O)CCCC3=O)c2=O)c1")
98
>>> result_number("CCc1cccc(-n2c(-c3ccccc3)ncc(C(=O)C3=C(O)CCCC3=O)c2=O)c1")
90
>>> result_number("O=C1CCCC(O)=C1C(=O)c1cnc(-c2ccccc2)n(-c2ccc(F)cc2)c1=O")
98
>>> result_number("Cc1ccc(-n2c(-c3cccc(Cl)c3)ncc(C(=O)C3=C(O)CCCC3=O)c2=O)cc1")
100
>>> result_number("O=C1CCCC(O)=C1C(=O)c1cnc(-c2cccc(Cl)c2)n(-c2ccccc2)c1=O")
95
>>> result_number("O=C1CCCC(O)=C1C(=O)c1cnc(-c2cccc(Br)c2)n(-c2ccccc2)c1=O")
98
>>> result_number("CCCc1ncc(C(=O)C2=C(O)CCCC2=O)c(=O)n1CCC")
95

###

Entries and their Plant response rating, Bromegrass, Downy values follow.
- Tested on: downy bromegrass (Bromus tectorum)
- Assay notes: Test B pre-/postemergence plant response
- Assay type: in vivo
- Experimental setup: Preemergence, 125 g ai/ha; scale 0 to 100, 0 no effect, 100 complete control
Quantity name: Plant response rating, Bromegrass, Downy

>>> result_number("O=C1CCCC(O)=C1C(=O)c1cnc(-c2cccc(Br)c2)n(-c2ccccc2)c1=O [Compound 69]")
0
>>> result_number("CCCCn1c(CCC)ncc(C(=O)C2=C(O)CCCC2=O)c1=O [Compound 75]")
0
>>> result_number("CCCCn1c(C2CC2)ncc(C(=O)C2=C(O)CCCC2=O)c1=O [Compound 193]")
5
>>> result_number("CCCc1ncc(C(=O)C2=C(O)CCCC2=O)c(=O)n1-c1ccccc1 [Compound 217]")
0
>>> result_number("O=C1CCCC(O)=C1C(=O)c1cnc(-c2cccs2)n(-c2ccccc2)c1=O [Compound 66]")
0
